# Test system: U2932 TK216-resistant clone 2
# ASSAY_DETAILS: cell proliferation relative to vehicle (% of vehicle); higher = less growth inhibition
# CONDITIONS: 50 nM; 72 h
Use TRUE when the recorded cell proliferation is no lower than 100; use FALSE when it is lower.

Solved entries (count: 3):
COMPOUND	MEASUREMENT_TARGET	ASSIGNED_CATEGORY
CC(C)(C)c1nc(-c2cccc(NS(=O)(=O)c3c(F)cccc3F)c2F)c(-c2ccnc(N)n2)s1	U2932 TK216-resistant clone 2	TRUE
COc1cc2nccc(Oc3ccc(NC(=O)C4(C(=O)Nc5ccc(F)cc5)CC4)cc3)c2cc1OC [Cabozantinib malate (XL184)]	U2932 TK216-resistant clone 2	TRUE
CCc1ccc(/C=C2/SC(=S)NC2=O)cc1	U2932 TK216-resistant clone 2	TRUE

Turning to the following compound.
Q: Identify whether the reported cell proliferation of the following compound is 100 or greater: `Oc1ccc(Nc2nc(-c3ccc(Cl)cc3)cs2)cc1`
A: TRUE
